Biological target: UniProt:P30291
Sequence (P30291 whole entry): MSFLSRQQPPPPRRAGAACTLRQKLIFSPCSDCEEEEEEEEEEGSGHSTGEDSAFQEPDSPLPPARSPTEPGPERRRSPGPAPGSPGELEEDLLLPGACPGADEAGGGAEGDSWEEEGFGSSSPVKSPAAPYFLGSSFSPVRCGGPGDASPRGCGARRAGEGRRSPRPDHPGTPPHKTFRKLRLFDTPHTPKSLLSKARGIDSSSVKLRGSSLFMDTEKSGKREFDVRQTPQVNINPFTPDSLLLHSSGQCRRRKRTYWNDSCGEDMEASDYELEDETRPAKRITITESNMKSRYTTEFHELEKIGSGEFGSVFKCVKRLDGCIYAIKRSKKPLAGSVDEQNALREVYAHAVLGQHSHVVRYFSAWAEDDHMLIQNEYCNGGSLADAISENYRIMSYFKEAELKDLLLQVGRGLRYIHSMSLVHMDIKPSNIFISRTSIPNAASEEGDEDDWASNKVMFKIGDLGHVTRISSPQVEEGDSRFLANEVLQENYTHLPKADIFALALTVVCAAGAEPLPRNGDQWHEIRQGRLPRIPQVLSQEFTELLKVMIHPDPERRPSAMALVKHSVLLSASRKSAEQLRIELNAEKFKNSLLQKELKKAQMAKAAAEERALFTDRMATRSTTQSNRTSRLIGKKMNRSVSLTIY
Activity calls are given as the source filed them.
Return exactly one item of 1 = active, -1 = inactive

(Q) What classification did `C[C@@H]1CN(Cc2ccc(F)cc2)[C@@H](C)CN1C(=O)c1cc2c(C(=O)C(=O)N(C)C)cn(C)c2cc1Cl` end up with in this test?
(A) -1

(Q) What classification did `CCCS(=O)(=O)Nc1ccc(F)c(C(=O)c2c[nH]c3ncc(-c4ccc(Cl)cc4)cc23)c1F` end up with in this test?
(A) -1

(Q) What classification did `CN(C)C(=O)c1cc2cnc(Nc3ccc(N4CCNCC4)cn3)nc2n1C1CCCC1` end up with in this test?
(A) -1

(Q) What classification did `CN1CCC(CNc2ccc3ncc(-c4cccc(OC(F)(F)F)c4)n3n2)CC1` end up with in this test?
(A) -1

(Q) What classification did Cc1cc2c(F)c(Oc3ncnn4cc(OC[C@@H](C)OC(=O)[C@H](C)N)c(C)c34)ccc2[nH]1 [BRIVANIB ALANINATE] end up with in this test?
(A) -1

(Q) What classification did `C=CC(=O)N1CCC(Oc2cc3c(Nc4ccc(Cl)c(Cl)c4F)ncnc3cc2OC)CC1` end up with in this test?
(A) -1

(Q) What classification did `CCN1CCN(Cc2ccc(-c3cc4c(N[C@H](C)c5ccccc5)ncnc4[nH]3)cc2)CC1` end up with in this test?
(A) 1

----------
Biological target: Tyrosine-protein kinase ABL1 (Homo sapiens); note: in the data inactive means no Kd found up to 30 µM
Sequence (P00519 whole entry): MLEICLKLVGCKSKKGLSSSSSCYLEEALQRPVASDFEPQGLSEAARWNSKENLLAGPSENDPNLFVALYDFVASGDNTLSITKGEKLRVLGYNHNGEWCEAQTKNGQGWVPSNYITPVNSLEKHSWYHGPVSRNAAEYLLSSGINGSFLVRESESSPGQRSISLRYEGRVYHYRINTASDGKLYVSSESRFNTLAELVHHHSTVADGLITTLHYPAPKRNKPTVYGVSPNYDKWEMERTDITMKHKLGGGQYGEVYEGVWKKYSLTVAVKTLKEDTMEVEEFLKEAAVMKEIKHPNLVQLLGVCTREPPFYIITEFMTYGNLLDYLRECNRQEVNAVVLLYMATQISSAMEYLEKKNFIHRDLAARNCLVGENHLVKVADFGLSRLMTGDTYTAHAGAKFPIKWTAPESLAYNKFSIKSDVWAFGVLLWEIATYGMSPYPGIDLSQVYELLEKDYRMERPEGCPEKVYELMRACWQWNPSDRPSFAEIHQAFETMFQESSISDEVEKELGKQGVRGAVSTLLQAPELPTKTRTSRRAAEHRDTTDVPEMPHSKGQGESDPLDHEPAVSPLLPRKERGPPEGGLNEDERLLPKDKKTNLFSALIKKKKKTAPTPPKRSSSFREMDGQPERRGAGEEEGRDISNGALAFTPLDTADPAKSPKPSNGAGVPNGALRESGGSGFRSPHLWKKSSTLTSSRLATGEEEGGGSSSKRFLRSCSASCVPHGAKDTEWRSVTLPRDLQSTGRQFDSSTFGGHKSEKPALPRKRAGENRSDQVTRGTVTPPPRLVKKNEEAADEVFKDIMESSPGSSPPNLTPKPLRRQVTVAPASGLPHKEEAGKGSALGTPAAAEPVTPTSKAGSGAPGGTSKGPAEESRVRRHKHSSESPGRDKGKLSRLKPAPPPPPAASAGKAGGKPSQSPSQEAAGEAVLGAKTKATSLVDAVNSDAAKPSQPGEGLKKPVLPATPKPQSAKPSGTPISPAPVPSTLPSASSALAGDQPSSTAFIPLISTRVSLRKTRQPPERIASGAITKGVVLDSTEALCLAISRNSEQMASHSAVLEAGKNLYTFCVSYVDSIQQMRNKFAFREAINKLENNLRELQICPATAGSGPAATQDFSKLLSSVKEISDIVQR
Activity calls are given as the source filed them.
Return exactly one item of active, inactive

(Q) What classification did `CN1CC[C@@H](c2c(O)cc(O)c3c(=O)cc(-c4ccccc4Cl)oc23)[C@@H]1CO` end up with in this test?
(A) inactive

(Q) What classification did `CO[C@H]1C[C@@H]2CC[C@@H](C)[C@@](O)(O2)C(=O)C(=O)N2CCCC[C@H]2C(=O)O[C@H]([C@H](C)C[C@@H]2CC[C@@H](OCCO)[C@H](OC)C2)CC(=O)[C@H](C)/C=C(\C)[C@@H](O)[C@@H](OC)C(=O)[C@H](C)C[C@H](C)/C=C/C=C/C=C/1C` end up with in this test?
(A) inactive

(Q) What classification did `Cc1ccc(-n2nc(C(C)(C)C)cc2NC(=O)NCc2cc(F)ccc2Oc2ccc3c(cnn3CCO)c2)cc1` end up with in this test?
(A) active

(Q) What classification did `COc1cc(OC)c(/C=C/S(=O)(=O)Cc2ccc(OC)c(NCC(=O)O)c2)c(OC)c1` end up with in this test?
(A) inactive

----------
Target: Serine/threonine-protein kinase D3 (Homo sapiens); note: in the data inactive means no Kd found up to 30 µM
Sequence (O94806 whole entry): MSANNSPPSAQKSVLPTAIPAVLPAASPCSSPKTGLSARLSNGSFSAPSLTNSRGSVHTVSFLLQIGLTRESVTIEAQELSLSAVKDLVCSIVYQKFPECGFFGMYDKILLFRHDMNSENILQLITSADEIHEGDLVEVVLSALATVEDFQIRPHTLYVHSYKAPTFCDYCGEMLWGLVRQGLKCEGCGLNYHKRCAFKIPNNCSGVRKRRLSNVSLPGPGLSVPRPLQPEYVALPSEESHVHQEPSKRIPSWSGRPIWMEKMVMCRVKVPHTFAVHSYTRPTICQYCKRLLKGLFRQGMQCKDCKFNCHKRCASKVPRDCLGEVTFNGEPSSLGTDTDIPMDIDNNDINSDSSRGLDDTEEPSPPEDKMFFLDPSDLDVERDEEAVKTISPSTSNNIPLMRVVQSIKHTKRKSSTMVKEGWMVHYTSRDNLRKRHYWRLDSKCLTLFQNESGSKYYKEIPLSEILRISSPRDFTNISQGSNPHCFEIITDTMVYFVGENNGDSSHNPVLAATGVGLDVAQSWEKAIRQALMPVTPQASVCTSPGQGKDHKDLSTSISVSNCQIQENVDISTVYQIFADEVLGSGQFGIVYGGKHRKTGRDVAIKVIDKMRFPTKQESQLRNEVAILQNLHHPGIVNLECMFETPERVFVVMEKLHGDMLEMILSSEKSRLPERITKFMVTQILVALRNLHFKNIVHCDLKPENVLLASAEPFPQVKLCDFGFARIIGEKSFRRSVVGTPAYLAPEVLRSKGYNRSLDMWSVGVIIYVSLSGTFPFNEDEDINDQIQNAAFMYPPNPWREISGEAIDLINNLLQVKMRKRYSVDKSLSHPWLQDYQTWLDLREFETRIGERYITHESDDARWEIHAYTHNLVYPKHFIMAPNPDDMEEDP
The source made the active and inactive calls.
Return exactly one item of active, inactive

(Q) What classification did `CN(C)C(=O)c1cc2cnc(Nc3ccc(N4CCNCC4)cn3)nc2n1C1CCCC1` end up with in this test?
(A) inactive

(Q) What classification did `C1=C/COCc2cc(ccc2OCCN2CCCC2)Nc2nccc(n2)-c2cccc(c2)COC/1` end up with in this test?
(A) inactive

(Q) What classification did `COc1cc2nccc(Oc3ccc(NC(=O)NC4CC4)c(Cl)c3)c2cc1C(N)=O` end up with in this test?
(A) inactive

(Q) What classification did `Cc1cc([C@@H](C)Nc2ccccc2C(=O)O)c2nc(N3CCOCC3)cc(=O)n2c1` end up with in this test?
(A) inactive

(Q) What classification did `Cn1cc(-c2ccc(F)c(C(F)(F)F)c2)nc1C1CCN(c2ncnc3[nH]ncc23)CC1` end up with in this test?
(A) inactive

(Q) What classification did `CNC(=O)CN1CCC(Oc2cc3c(Nc4cccc(Cl)c4F)ncnc3cc2OC)CC1` end up with in this test?
(A) inactive

(Q) What classification did `CCN1CCN(Cc2ccc(-c3cc4c(N[C@H](C)c5ccccc5)ncnc4[nH]3)cc2)CC1` end up with in this test?
(A) inactive

(Q) What classification did `COc1cc2nccc(Oc3ccc(NC(=O)Nc4cc(C)on4)c(Cl)c3)c2cc1OC` end up with in this test?
(A) inactive

(Q) What classification did `C[C@@H](c1ccc2nccn2c1)n1nnc2ncc(-c3cnn(C)c3)nc21` end up with in this test?
(A) inactive

(Q) What classification did `O=C(c1ccc(F)c(F)c1Nc1ccc(I)cc1F)N1CC(O)([C@@H]2CCCCN2)C1` end up with in this test?
(A) inactive

(Q) What classification did `CNC(=O)c1ccc(C)c(-n2c(C)cc(OCc3ccc(F)cc3F)c(Br)c2=O)c1` end up with in this test?
(A) inactive

(Q) What classification did `CN1CC[C@@H](c2c(O)cc(O)c3c(=O)cc(-c4ccccc4Cl)oc23)[C@@H]1CO` end up with in this test?
(A) active

(Q) What classification did `Cc1ccc(-n2nc(C(C)(C)C)cc2NC(=O)NCc2cc(F)ccc2Oc2ccc3c(cnn3CCO)c2)cc1` end up with in this test?
(A) inactive

(Q) What classification did CN1N=C(N)c2cn([C@@H]3O[C@H](COP(=O)(O)O)[C@@H](O)[C@H]3O)c3ncnc1c23 [TRICIRIBINE PHOSPHATE] end up with in this test?
(A) inactive

(Q) What classification did `CCCS(=O)(=O)Nc1ccc(F)c(C(=O)c2c[nH]c3ncc(-c4ccc(Cl)cc4)cc23)c1F` end up with in this test?
(A) inactive
